Target: Wt EGFR (Homo sapiens, UniProt P00533)
Construct: isolated from A431 human epidermoid carcinoma cells which overexpress EGF receptor; endogenous in cells
Sequence (P00533 25-1210): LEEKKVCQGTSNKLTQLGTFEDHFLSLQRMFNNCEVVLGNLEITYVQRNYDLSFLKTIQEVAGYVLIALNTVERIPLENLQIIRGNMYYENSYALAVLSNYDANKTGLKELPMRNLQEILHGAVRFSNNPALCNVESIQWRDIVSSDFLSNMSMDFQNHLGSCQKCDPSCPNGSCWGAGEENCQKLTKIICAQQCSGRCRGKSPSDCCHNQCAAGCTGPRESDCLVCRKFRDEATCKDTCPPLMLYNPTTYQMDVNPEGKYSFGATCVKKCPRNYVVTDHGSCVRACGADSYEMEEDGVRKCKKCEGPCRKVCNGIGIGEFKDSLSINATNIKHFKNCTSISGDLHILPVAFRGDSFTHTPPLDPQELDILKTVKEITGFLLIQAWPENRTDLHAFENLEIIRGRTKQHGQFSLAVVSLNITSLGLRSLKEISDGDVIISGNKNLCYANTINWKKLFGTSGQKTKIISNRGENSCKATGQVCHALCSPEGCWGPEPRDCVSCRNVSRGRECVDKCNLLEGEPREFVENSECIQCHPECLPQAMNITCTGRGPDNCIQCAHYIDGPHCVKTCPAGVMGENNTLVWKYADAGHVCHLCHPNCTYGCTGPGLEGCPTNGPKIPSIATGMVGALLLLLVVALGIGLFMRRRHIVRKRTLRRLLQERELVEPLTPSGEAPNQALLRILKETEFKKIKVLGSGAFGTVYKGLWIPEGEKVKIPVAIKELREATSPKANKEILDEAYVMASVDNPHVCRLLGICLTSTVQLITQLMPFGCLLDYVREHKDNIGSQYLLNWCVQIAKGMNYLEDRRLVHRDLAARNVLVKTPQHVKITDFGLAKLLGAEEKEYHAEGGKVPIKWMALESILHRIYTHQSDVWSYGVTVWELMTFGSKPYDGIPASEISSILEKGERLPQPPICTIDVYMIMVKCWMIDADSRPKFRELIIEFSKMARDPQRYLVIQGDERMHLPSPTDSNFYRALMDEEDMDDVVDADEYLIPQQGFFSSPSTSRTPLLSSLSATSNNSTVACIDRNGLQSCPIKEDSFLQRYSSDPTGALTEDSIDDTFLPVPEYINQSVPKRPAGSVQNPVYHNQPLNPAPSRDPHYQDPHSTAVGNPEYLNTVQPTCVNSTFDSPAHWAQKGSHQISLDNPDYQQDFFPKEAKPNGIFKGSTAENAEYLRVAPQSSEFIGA
Assay: Enzyme assay, IC50 for wt EGFR (Caliper)
Settings: enzyme phosphorylation assay; read-out: EGFR_WT IC50

| compound | unit-abbrev | IC50 |
| --- | --- | --- |
| C=CC(=O)Nc1cc(Nc2nccc(-c3c(C)[nH]c4ccccc34)n2)c(OC)cc1N(C)CCN(C)C [Example 14] | nM | 5 |
| C=CC(=O)Nc1cc(Nc2nccc(-c3c[nH]c4ccccc34)n2)c(OC)cc1N(C)CCN(C)C [AZD-5104] | nM | 1.6 |
| C=CC(=O)Nc1cc(Nc2nccc(-n3cc(Cl)c4ccccc43)n2)c(OC)cc1N(C)CCN(C)C [Example 3] | nM | 8.4 |
| C=CC(=O)Nc1cc(Nc2nccc(-c3cn(C)c4cccc(Cl)c34)n2)c(OC)cc1N(C)CCN(C)C [Example 6] | nM | 44 |
| C=CC(=O)Nc1cc(Nc2nccc(-n3ccc4ccccc43)n2)c(OC)cc1N(C)CCN(C)C [Example 1] | nM | 4.1 |
| C=CC(=O)Nc1cc(Nc2nccc(-c3c[nH]c4c(C#N)cccc34)n2)c(OC)cc1N(C)CCN(C)C [Example 12] | nM | 1.5 |
| C=CC(=O)Nc1cc(Nc2nccc(-n3cc(S(C)(=O)=O)c4ccccc43)n2)c(OC)cc1N(C)CCN(C)C [Example 9] | nM | 1.5 |

----------
Target: EGFR_d746-750 (Homo sapiens, UniProt P00533, DEL746-750)
Sequence (P00533 with tags, fused parts or gaps DEL746-750): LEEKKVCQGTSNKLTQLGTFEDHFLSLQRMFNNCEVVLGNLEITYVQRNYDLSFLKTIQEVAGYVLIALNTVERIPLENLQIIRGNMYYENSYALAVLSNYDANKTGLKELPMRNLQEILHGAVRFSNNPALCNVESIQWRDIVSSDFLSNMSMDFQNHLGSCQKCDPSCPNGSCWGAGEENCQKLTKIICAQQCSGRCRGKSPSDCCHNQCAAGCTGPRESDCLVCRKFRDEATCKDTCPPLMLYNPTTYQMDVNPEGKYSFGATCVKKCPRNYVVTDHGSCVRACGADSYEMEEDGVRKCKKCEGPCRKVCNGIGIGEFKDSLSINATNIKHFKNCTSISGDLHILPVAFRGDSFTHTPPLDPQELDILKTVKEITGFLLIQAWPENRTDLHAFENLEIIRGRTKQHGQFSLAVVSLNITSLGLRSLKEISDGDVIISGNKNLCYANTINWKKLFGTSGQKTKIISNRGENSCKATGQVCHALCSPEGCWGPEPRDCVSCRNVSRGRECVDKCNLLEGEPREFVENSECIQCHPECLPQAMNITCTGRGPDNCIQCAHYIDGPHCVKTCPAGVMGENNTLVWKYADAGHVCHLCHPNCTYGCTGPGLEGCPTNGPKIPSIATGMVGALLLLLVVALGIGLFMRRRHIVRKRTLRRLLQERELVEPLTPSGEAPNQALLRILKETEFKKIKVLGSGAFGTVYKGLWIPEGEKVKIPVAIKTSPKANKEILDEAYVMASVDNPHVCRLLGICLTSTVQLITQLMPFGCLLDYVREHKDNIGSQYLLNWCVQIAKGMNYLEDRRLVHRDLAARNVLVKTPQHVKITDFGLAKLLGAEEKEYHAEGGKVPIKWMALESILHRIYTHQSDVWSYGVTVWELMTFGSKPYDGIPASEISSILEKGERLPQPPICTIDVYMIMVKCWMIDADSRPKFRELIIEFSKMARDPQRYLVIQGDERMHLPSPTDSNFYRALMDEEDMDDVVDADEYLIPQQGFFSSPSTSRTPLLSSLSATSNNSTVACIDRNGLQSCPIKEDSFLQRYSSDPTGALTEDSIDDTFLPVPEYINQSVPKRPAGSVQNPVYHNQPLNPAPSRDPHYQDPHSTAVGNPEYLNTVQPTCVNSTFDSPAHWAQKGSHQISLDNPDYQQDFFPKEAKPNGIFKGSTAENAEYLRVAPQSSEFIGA
Assay: Enzyme assay, IC50 for single mutant EGFR_d746-750 (Caliper)
Settings: enzyme phosphorylation assay
quantity-measured: IC50 (nM)

| smiles-structure | unit-abbrev | test-result |
| --- | --- | --- |
| C=CC(=O)Nc1cc(Nc2nccc(-n3cc(S(C)(=O)=O)c4ccccc43)n2)c(OC)cc1N(C)CCN(C)C | nM | 1.1 |
| C=CC(=O)Nc1cc(Nc2nccc(-n3cc(Cl)c4ccccc43)n2)c(OC)cc1N(C)CCN(C)C | nM | 5.3 |
| C=CC(=O)Nc1cc(Nc2nccc(-n3cc(CO)c4ccccc43)n2)c(OC)cc1N(C)CCN(C)C | nM | 1.2 |
| C=CC(=O)Nc1cc(Nc2nccc(-c3c[nH]c4c(C#N)cccc34)n2)c(OC)cc1N(C)CCN(C)C | nM | 1.1 |
| C=CC(=O)Nc1cc(Nc2nccc(-n3cc(C)c4ccccc43)n2)c(OC)cc1N(C)CCN(C)C | nM | 3.1 |
| C=CC(=O)Nc1cc(Nc2nccc(-c3cn(C)c4cccc(C)c34)n2)c(OC)cc1N(C)CCN(C)C | nM | 8.2 |
| C=CC(=O)Nc1cc(Nc2nccc(-n3c(=O)[nH]c4ccccc43)n2)c(OC)cc1N(C)CCN(C)C | nM | 0.91 |
| C=CC(=O)Nc1cc(Nc2nccc(-n3cc(C#N)c4ccccc43)n2)c(OC)cc1N(C)CCN(C)C | nM | 2.6 |
| C=CC(=O)Nc1cc(Nc2nccc(N3CCc4ccccc43)n2)c(OC)cc1N(C)CCN(C)C | nM | 1.7 |
| C=CC(=O)Nc1cc(Nc2nccc(-c3c[nH]c4c(C)cccc34)n2)c(OC)cc1N(C)CCN(C)C | nM | 1 |
| C=CC(=O)Nc1cc(Nc2nccc(-c3c(C)[nH]c4ccccc34)n2)c(OC)cc1N(C)CCN(C)C | nM | 1 |
| C=CC(=O)Nc1cc(Nc2nccc(-n3cc(C(N)=O)c4ccccc43)n2)c(OC)cc1N(C)CCN(C)C | nM | 0.85 |

----------
Tested on: PC9 cells (SM)
Test: PC-9 growth inhibition assay (cell proliferation), Method B
Format: cell-based, human
Details: Homo sapiens, PC-9, 72 h, cellular proliferation, several runs
pIC50: −log10 of the molar value. Counter-ions that a name gives are not always drawn.
quantity-measured: pIC50

| molecule | test-result |
| --- | --- |
| C=CC(=O)Nc1cc(Nc2nccc(-n3nc(N(C)C)c4ncccc43)n2)c(OC)cc1N(C)CCN(C)C [Example 55] | 8.04 |
| C=CC(=O)Nc1cc(Nc2nccc(-n3cc(C(=O)O)c4ccccc43)n2)c(OC)cc1N(C)CCN(C)C [Example 30] | 7.72 |
| C=CC(=O)Nc1cc(Nc2ncc(Cl)c(-c3cncc(C(N)=O)c3)n2)c(OC)cc1N(C)CCN(C)C [Example 24, hydrochloride] | 7.17 |
| C=CC(=O)Nc1cc(Nc2nccc(-n3nc(Nc4ccccn4)c4ccccc43)n2)c(OC)cc1N(C)CCN(C)C [Example 58] | 8.82 |
| C=CC(=O)Nc1cc(Nc2ncc(Cl)c(-c3cc(C(N)=O)cc4c3ccn4C)n2)c(OC)cc1N(C)CCN(C)C [Example 47] | 7.91 |
| C=CC(=O)Nc1cc(Nc2ncc(Cl)c(-n3cc(C(C)=O)c4ccccc43)n2)c(OC)cc1N(C)CCN(C)C [Example 73] | 8.48 |
| C=CC(=O)Nc1cc(Nc2nccc(-n3nc(C(C)(C)O)c4ccccc43)n2)c(OC)cc1N(C)CCN(C)C [Example 45] | 8.36 |
| C=CC(=O)Nc1cc(Nc2nccc(-c3cc(NC)cc4c3ccn4C)n2)c(OC)cc1N(C)CCN(C)C [Example 40] | 7.20 |
| C=CC(=O)Nc1cc(Nc2nccc(-c3cnc(NC)c(C(N)=O)c3)n2)c(OC)cc1N(C)CCN(C)C [Example 28] | 7.66 |
| C=CC(=O)Nc1cc(Nc2ncc(Cl)c(-n3nc(NC)c4ccccc43)n2)c(OC)cc1N(C)CCN(C)C [Example 52] | 7.76 |
| C=CC(=O)Nc1cc(Nc2nccc(-c3cc(C(N)=O)c4[nH]cc(C)c4c3)n2)c(OC)cc1N(C)CCN(C)C [Example 68] | 8.63 |
| C=CC(=O)Nc1cc(Nc2ncc(Cl)c(-c3ccc(N(C)C)nc3)n2)c(OC)cc1N(C)CCN(C)C [Example 26] | 7.43 |
| C=CC(=O)Nc1cc(Nc2nccc(-c3cc(C)c[nH]c3=O)n2)c(OC)cc1N(C)CCN(C)C [Example 37] | 7.66 |
| C=CC(=O)Nc1cc(Nc2nccc(-c3cc(C(N)=O)cc4c3ccn4C)n2)c(OC)cc1N(C)CCN(C)C [Example 34, hydrochloride] | 8.14 |
| C=CC(=O)Nc1cc(Nc2nccc(-n3nc(C(F)F)c4ccccc43)n2)c(OC)cc1N(C)CCN(C)C [Example 35, hydrochloride] | 7.48 |
| C=CC(=O)Nc1cc(Nc2nccc(-n3nc(NC4CC4)c4ccccc43)n2)c(OC)cc1N(C)CCN(C)C [Example 69] | 8.72 |
| C=CC(=O)Nc1cc(Nc2nccc(-c3cc(C(N)=O)c4c(c3)c(Cl)cn4C)n2)c(OC)cc1N(C)CCN(C)C [Example 32, hydrochloride] | 8.07 |
| C=CC(=O)Nc1cc(Nc2nccc(-n3cc(-c4ccn[nH]4)c4ccccc43)n2)c(OC)cc1N(C)CCN(C)C [Example 74] | 8.24 |
| C=CC(=O)Nc1cc(Nc2ncc(Cl)c(-c3ccc(NC)nc3)n2)c(OC)cc1N(C)CCN(C)C [Example 25] | 7.20 |
| C=CC(=O)Nc1cc(Nc2nccc(-n3nc(NC)c4ccccc43)n2)c(OC)cc1N(C)CCN(C)C [Example 21] | 8.60 |
| C=CC(=O)Nc1cc(Nc2nccc(-n3cc(-c4ccn[nH]4)c4ncccc43)n2)c(OC)cc1N(C)CCN(C)C [Example 76] | 8.48 |
| C=CC(=O)Nc1cc(Nc2nccc(-n3nc(C(N)=O)c4ccccc43)n2)c(OC)cc1N(C)CCN(C)C [Example 18] | 9.19 |
| C=CC(=O)Nc1cc(Nc2nccc(-n3cc(S(N)(=O)=O)c4ccccc43)n2)c(OC)cc1N(C)CCN(C)C [Example 17] | 9.03 |
| C=CC(=O)Nc1cc(Nc2ncc(Cl)c(-c3c[nH]c(=O)c(C)c3)n2)c(OC)cc1N(C)CCN(C)C [Example 38] | 7.08 |
| C=CC(=O)Nc1cc(Nc2nccc(-n3nc(N(C)CC)c4ccccc43)n2)c(OC)cc1N(C)CCN(C)C [Example 60] | 7.95 |
| C=CC(=O)Nc1cc(Nc2nccc(-c3c[nH]c4c(N(C)C)nccc34)n2)c(OC)cc1N(C)CCN(C)C [Example 50] | 7.84 |
| C=CC(=O)Nc1cc(Nc2nccc(-n3nc(NC(C)C)c4ccccc43)n2)c(OC)cc1N(C)CCN(C)C [Example 43] | 8.48 |
| C=CC(=O)Nc1cc(Nc2nccc(-n3cc(S(=O)(=O)NC)c4ccccc43)n2)c(OC)cc1N(C)CCN(C)C [Example 62] | 9.03 |

----------
Target: EGFR_d746-750 (Homo sapiens, UniProt P00533, DEL746-750)
Experiment: Enzyme assay, IC50 for single mutant EGFR_d746-750 (Caliper)
Conditions: enzyme phosphorylation assay
pIC50: −log10 of the molar value.
The following molecules are listed with their measured pIC50 values.

| molecule | pIC50 |
| --- | --- |
| C=CC(=O)Nc1cc(Nc2nccc(-c3c[nH]c4ccccc34)n2)c(OC)cc1N(C)CCN(C)C [AZD-5104] | 8.96 |
| C=CC(=O)Nc1cc(Nc2nccc(-c3n[nH]c4ccccc34)n2)c(OC)cc1N(C)CCN(C)C [Example 15] | 8.96 |
| C=CC(=O)Nc1cc(Nc2nccc(-n3ccc4ccccc43)n2)c(OC)cc1N(C)CCN(C)C [Example 1] | 8.62 |
| C=CC(=O)Nc1cc(Nc2nccc(-c3cn(C)c4cccc(Cl)c34)n2)c(OC)cc1N(C)CCN(C)C [Example 6] | 8.04 |
